Cited source: PubChem BioAssay (NCI)

Entries and their TGI
test system: SR leukemia; experiment: NCI tumour cell line growth inhibition, 48 h
attribute measured: TGI

molecule=C[S+](C)C1(c2ccccc2)C(=O)c2ccccc2C1=O reported="> 100 µM"
molecule=COc1ccc(Nc2ccnc3cc(Cl)ccc23)cc1CN(CCCl)CCCl reported="0.699 µM"
molecule=CC(C)(CO)Nc1c(O)c2c(c(O)c1Cl)C(=O)C=CC2=O reported="0.782 µM"
molecule="CC(C)N(C(=O)C12C3C4C5C3C1(C(=O)N(C(C)C)C(C)C)C5C42)C(C)C (stereo unspecified)" reported="38.7 µM"
molecule="CC1CC2OC(=N)C1(C#N)C2(C#N)C#N (stereo unspecified)" reported="> 100 µM"
molecule=O=C(/C=C(/C=C/c1csc2ccccc12)OB(F)F)/C=C/c1csc2ccccc12 reported="> 50 µM"
molecule="COc1cc2c3c4[n+](cc2c(OC)c1OC)CCC4CCC3 (stereo unspecified)" reported="> 100 µM"
molecule="O=C1NC(=Nc2ccccc2Cl)SC1C(=O)Nc1ccc([N+](=O)[O-])cc1[N+](=O)[O-] (stereo unspecified)" reported="> 100 µM"
molecule=Cn1c(-c2cccs2)cc(-c2ccsc2)c1-c1ccsc1 reported="> 100 µM"
molecule=Cc1ccc(S(=O)(=O)N/N=C/CN2C(=O)c3ccccc3C2=O)cc1 reported="> 100 µM"
molecule=CC(C)S(=O)(=O)ON1C(=O)c2ccc([N+](=O)[O-])cc2C1=O reported="> 100 µM"
molecule="CC(=O)OC1CC2C(C)(C)C(=O)C=C[C@]2(C)C2CCC3(C)C(=CCC3[C@H](CO)C[C@H](O)C(=O)C(C)(C)O)[C@]12C (stereo partly specified)" reported="86.2 µM"
molecule="CC1=NNC(N)=N/C1=C\\C(Sc1ccc(Cl)cc1)c1ccc(Cl)cc1Cl (stereo unspecified)" reported="> 100 µM"
molecule=CN1CCN(Cc2ccc(NC(=O)c3cncc(C#Cc4cncc5[nH]ncc45)c3)cc2C(F)(F)F)CC1 reported="10.7 µM"
molecule=Nc1nn2cc(-c3ccccc3)[n+](CC(=O)c3ccccc3)c2s1 reported="48 µM"
molecule=O=c1cc(-c2ccccc2)[nH]c2c(F)ccc(F)c12 reported="90.3 µM"
molecule=Clc1ccc2c(NCCNc3nc(Cl)nc4ccccc34)ccnc2c1 reported="0.866 µM"
molecule="COC1OC2COC(c3ccccc3)OC2C(OC(=S)c2ccccc2)C1O (stereo unspecified)" reported="> 100 µM"
molecule=CO[C@H]1/C=C/C=C/C=C/C[C@H](OC(=O)[C@@H](C)NC(=O)C2CCCCC2)[C@H](C)[C@@H](O)/C(C)=C\CCC2=CC(=O)C=C(NC(=O)C1)C2=O reported="> 50 µM"
molecule=CCN(Cc1cccc(C)c1)c1ccc(CO)c(Cl)c1 reported="> 62 µM"
molecule=C(=N\Nc1nnc(-c2nnc(N/N=C/c3ccccc3)o2)o1)/c1ccccc1 reported="> 10 µM"

----------
tested on: SW-620 colon; test: NCI tumour cell line growth inhibition, 48 h
Entries and their TGI
attribute measured: TGI

compound=CCN(CC)Cc1cc(Nc2c3ccc(Cl)cc3nc3c(C)cccc23)ccc1O attribute_measured=TGI reported="2.53 µM"
compound=CCN(CC)C(=O)c1ccc(C)c(N=NN(C)C)c1 attribute_measured=TGI reported="> 100 µM"
compound="CCC(C)Cn1c(C)nc2c1C(=O)c1ccccc1C2=O (stereo not given)" attribute_measured=TGI reported="> 100 µM"
compound=O=C(CN1CCN(c2cc3c(cc2F)c(=O)c(C(=O)O)cn3C2CC2)CC1)Nc1ccc(C(=O)/C=C/c2ccccc2)cc1 attribute_measured=TGI reported="> 100 µM"
compound=Nc1ccc(Sc2ccc3c4c2cccc4c(=O)n2c4ccccc4nc32)cc1 attribute_measured=TGI reported="> 100 µM"
compound=Cc1c(-c2ccnc(N)n2)c2c(n1-c1ccccc1)C(=O)c1ccccc1C2=O attribute_measured=TGI reported="> 100 µM"
compound=Cc1ccc(S(=O)(=O)N/N=C/CN2C(=O)c3ccccc3C2=O)cc1 attribute_measured=TGI reported="> 100 µM"
compound="O=C(OCC(OC(=O)c1ccccc1)C1CC(C(O)C2CCCCC2)C(=O)O1)c1ccccc1 (stereo not given)" attribute_measured=TGI reported="> 100 µM"
compound=O=C(CSCC(=O)N/N=C\c1cccc(Br)c1)N/N=C\c1cccc(Br)c1 attribute_measured=TGI reported="77.4 µM"
compound=CCN(CC)CCn1nc2c3c(cccc3c1=O)-c1ccccc1-2 attribute_measured=TGI reported="> 50 µM"

----------
system: SF-295 CNS; experiment: NCI tumour cell line growth inhibition, 48 h
attribute measured: TGI (µM)

molecule=Cc1cccc(-c2cc(=O)c3cc(C)cnc3[nH]2)c1 tgt="SF-295 CNS" comparator== reported=0.609
molecule=O=C(/C=C/c1ccc(OCCCOc2ccc(/C=C/C(=O)c3ccc(Cl)cc3)cc2)cc1)c1ccc(Cl)cc1 tgt="SF-295 CNS" comparator=> reported=100
molecule=O=C1c2ccccc2-c2c1c1ccccc1c(=O)n2CCCNCCO tgt="SF-295 CNS" comparator== reported=4.02
molecule=Cc1cc(C)c(N)c(CO)c1 tgt="SF-295 CNS" comparator=> reported=100
molecule=CCN(Cc1cccc(C)c1)c1ccc(CO)c(Cl)c1 tgt="SF-295 CNS" comparator== reported=16.4
molecule=O=c1cc(-c2ccccc2)[nH]c2c(F)ccc(F)c12 tgt="SF-295 CNS" comparator=> reported=100
molecule=COc1cc2cc(C(=O)N3C[C@H](CCl)c4c3cc(O)c3ccccc43)[nH]c2c(OC)c1OC tgt="SF-295 CNS" comparator== reported=1.23
molecule=CSC(=N/N=C(\C)c1ccc(S(=O)(=O)N(C)c2ccccc2)cc1)SC tgt="SF-295 CNS" comparator=> reported=100
molecule=CCN(CC)c1ccc(/C=C2/NC(=O)NC2=O)cc1 tgt="SF-295 CNS" comparator=> reported=32.7
molecule="COc1cccc2c1C(=O)c1c(O)c3c(c(O)c1C2=O)C[C@@](O)(C(=O)CO)CC3OC1CC(NCCCCC(OC(C)=O)OC(C)=O)C(O)C(C)O1 (stereo not given in full)" tgt="SF-295 CNS" comparator== reported=0.0335

----------
system: NCI-H226 lung; assay: NCI tumour cell line growth inhibition, 48 h; in the data active = GI50 below about 0.43 µM; inactive = the rest
Possible outcomes: 1 for active, 0 for inactive

structure=COC(=O)CCCCCCCCC(=O)c1c(C)[nH]c(/C=C2\N=C(c3ccc[nH]3)C=C2OC)c1C answer_label=0
structure=CCN(CC)Cc1cc(Nc2c3ccc(Cl)cc3nc3c(C)cccc23)ccc1O answer_label=0
structure=c1cc[c]([Sn]([O]c2cccc3cccnc23)([c]2ccccc2)[c]2ccccc2)cc1 answer_label=1
structure=CC(=O)[O-].CC(=O)[O-].CC(=O)[O-].CC(=O)[O-].CO.CO.CO.[Rh+2].[Rh+2].c1ccc(-c2ccccn2)nc1 answer_label=0

----------
Entries and their log10 of TGI
system: HCC-2998 colon; test: NCI tumour cell line growth inhibition, 48 h
attribute measured: log10 of TGI (log10 of the value in µM)

molecule=COc1ccc(OC)c([N+](=O)[O-])c1-c1nc2sc(C)cn2c1/C=N/N=C(N)N reported=1.78
molecule="CC1C/C(=C\\c2ccc(O)c(O)c2)C(=O)/C(=C/c2ccc(O)c(O)c2)C1 (stereo not given)" reported=1.55
molecule=N#Cc1nc(-c2ccccn2)c(-c2ccccn2)nc1C#N reported=1.25
molecule=COc1cc2cc(Oc3ccc(NC(=O)Nc4cc(C(F)(F)F)cc(C(F)(F)F)c4)cc3)c(C)nc2cc1OCCN1CCCCC1 reported=0.52
molecule=Clc1ccc2c(NCCNc3nc(Cl)nc4ccccc34)ccnc2c1 reported=0.50
molecule=CN(C)CCSc1nccc(-c2ccc(-c3ccnc(SCCN(C)C)n3)s2)n1 reported=1.27
molecule=C/C(=C\COc1ccc2ccc(=O)oc2c1)CCC(=O)C(C)(C)O reported=1.58
molecule=CCN(CC)CCn1nc2c3c(cccc3c1=O)-c1ccccc1-2 reported=1.04
molecule=Nc1nn2cc(-c3ccccc3)[n+](CC(=O)c3ccccc3)c2s1 reported=1.50

----------
test system: NCI/ADR-RES ovarian; test: NCI tumour cell line growth inhibition, 48 h; in the data active = GI50 below about 0.43 µM; inactive = the rest
*1 amine or outer side, *2 acyl side, *3 side chain or, on linkers, in order; H or OH if unused. Where a SMILES comes first, the peptide text is derived from it. [ ]: non-standard residue; d: D form. The star is where a group is joined. X12 = NCCCCC(N[*:1])C(=O)CN1CCCC1C(=O)[*:2]; Pentadecanoyl = CCCCCCCCCCCCCCC(=O)*
Possible outcomes: label 1 (active), label 0 (inactive)

molecule=COC(=O)CCCCCCCCC(=O)c1c(C)[nH]c(/C=C2\N=C(c3ccc[nH]3)C=C2OC)c1C answer_label="label 0"
molecule=COC(=O)[C@@H](C)C[C@H](Cc1ccccc1)NC(=O)c1csc([C@@H](C[C@H](C(C)C)N(C)C(=O)[C@@H](NC(=O)CN(C)C)C2CC2)OC(C)=O)n1 answer_label="label 0"
molecule=COC(=O)C1=C(C)NC(C)=C(C(=O)OC)C1c1ccccc1[N+](=O)[O-] answer_label="label 0"
molecule="CCCCCCCCCCCCCCC(=O)NC(CCCCN)C(=O)CN1CCCC1C(=O)NCC(=O)NC(Cc1ccccc1)C(=O)N1CCCC1C(=O)NC(CO)C(=O)NC(Cc1ccc(O)cc1)C(=O)NC(CCCCN)C(=O)NC(CC(C)C)C(=O)NC(CCCN=C(N)N)C(=O)N1CCCC1C(=O)NCC(N)=O (configuration not stated) (Pentadecanoyl-[X12]GFPSYKLRPG-NH2; configuration not given here)" answer_label="label 0"
molecule=Cc1cccc(Cc2cnc(NC(=O)/C=C/c3ccco3)s2)c1 answer_label="label 1"
molecule=CCN(CC)c1ccc(/C=C2/NC(=O)NC2=O)cc1 answer_label="label 0"
molecule="CCCCOc1nc2ccccc2cc1C1CNC(=O)c2ccccc2N1 (configuration not stated)" answer_label="label 0"
